src = patent US9725445B2

- assay-target: JAK2 (Homo sapiens (Human), UniProt O60674)
- Sequence (O60674 849-1124): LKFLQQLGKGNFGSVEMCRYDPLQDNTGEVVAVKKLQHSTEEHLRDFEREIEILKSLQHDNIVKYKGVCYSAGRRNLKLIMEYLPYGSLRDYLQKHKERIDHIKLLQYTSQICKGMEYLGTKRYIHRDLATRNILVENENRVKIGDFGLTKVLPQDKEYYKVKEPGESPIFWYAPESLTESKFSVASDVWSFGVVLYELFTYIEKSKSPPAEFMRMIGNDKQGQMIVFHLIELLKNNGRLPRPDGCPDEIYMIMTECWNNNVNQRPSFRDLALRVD
- protocol-details: Jak biochemical HTRF assay, JAK2
- measurement-conditions: HTRF biochemical assay, recombinant GST-tagged catalytic domain; read-out: JAK2 IC50
Reported IC50 by item:
Form entry: value (pM) — number only.

* CC(O)(CO)c1cc(Nc2nn([C@H]3CCCC[C@@H]3C#N)c3cc[nH]c(=O)c23)ccc1S(C)(=O)=O (stereo partly drawn) | 950

Task: Give the measured IC50 of N#C[C@H]1C[C@@H](N2CCC2)CC[C@@H]1n1nc(Nc2ccc(Cl)c(F)c2)c2c(=O)[nH]ccc21 .
Result: 31000

Task: Would you mind telling me what IC50 value was observed for Cc1cc(Nc2nn([C@H]3CCCC[C@@H]3C#N)c3cc[nH]c(=O)c23)ccc1C(C(C)C)n1ccnn1 (single isomer, unassigned) [Example 15-37] ?
Result: 250
